# maps each entry to its Kd
Molecular target: T1, IFN-α4a (human, UniProt P05014 24-189)
T1 construct: Recombinant, HEK293; also called IFN-αM1
Test: ProteOn SPR, cell supernatant;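 further: each binding measurement used just a single antigen concentration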
Enter your answer as a number in nM; do not include the unit.

BINDER: IFWM3387 (antibody, IgG1, V domains shown, mAb; IgG1/kappa said of the parent and of selected mAbs; also called IFWB3122) VH: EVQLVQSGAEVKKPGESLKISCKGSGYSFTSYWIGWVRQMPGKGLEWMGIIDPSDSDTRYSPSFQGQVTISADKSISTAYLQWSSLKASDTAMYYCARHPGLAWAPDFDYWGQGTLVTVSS VL: DIQMTQSPSSLSASVGDRVTITCRASQSIGGFLNWYQQKPGKAPKLLIYFASSLQSGVPSRFSGSGSGTDFTLTISSLQPEDFATYYCQQSYSLPITFGQGTKVEIK
Kd (nM): 0.169

Moving on to another binder below.
Request: Check the records and state Kd for IFWM3382 (antibody, IgG1, V domains shown, mAb; IgG1/kappa said of the parent and of selected mAbs; also called IFWB3117) VH: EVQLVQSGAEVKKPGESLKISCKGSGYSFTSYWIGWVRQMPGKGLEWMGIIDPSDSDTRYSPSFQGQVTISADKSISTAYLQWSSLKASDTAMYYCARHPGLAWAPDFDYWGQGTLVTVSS VL: DIQMTQSPSSLSASVGDRVTITCRASQSIGSALNWYQQKPGKAPKLLIYFASSLQSGVPSRFSGSGSGTDFTLTISSLQPEDFATYYCQQSYDFPLTFGQGTKVEIK
Response: 0.075
